# Tested target: EGFR L858R-T790M (Homo sapiens, UniProt P00533, L858R/T790M)
# Construct: NCI-H1975 (harboring EGFR heterozygous L858R-T790M mutations); host or cells: NCI-H1975
# Sequence (P00533 25-1210 T790M/L858R): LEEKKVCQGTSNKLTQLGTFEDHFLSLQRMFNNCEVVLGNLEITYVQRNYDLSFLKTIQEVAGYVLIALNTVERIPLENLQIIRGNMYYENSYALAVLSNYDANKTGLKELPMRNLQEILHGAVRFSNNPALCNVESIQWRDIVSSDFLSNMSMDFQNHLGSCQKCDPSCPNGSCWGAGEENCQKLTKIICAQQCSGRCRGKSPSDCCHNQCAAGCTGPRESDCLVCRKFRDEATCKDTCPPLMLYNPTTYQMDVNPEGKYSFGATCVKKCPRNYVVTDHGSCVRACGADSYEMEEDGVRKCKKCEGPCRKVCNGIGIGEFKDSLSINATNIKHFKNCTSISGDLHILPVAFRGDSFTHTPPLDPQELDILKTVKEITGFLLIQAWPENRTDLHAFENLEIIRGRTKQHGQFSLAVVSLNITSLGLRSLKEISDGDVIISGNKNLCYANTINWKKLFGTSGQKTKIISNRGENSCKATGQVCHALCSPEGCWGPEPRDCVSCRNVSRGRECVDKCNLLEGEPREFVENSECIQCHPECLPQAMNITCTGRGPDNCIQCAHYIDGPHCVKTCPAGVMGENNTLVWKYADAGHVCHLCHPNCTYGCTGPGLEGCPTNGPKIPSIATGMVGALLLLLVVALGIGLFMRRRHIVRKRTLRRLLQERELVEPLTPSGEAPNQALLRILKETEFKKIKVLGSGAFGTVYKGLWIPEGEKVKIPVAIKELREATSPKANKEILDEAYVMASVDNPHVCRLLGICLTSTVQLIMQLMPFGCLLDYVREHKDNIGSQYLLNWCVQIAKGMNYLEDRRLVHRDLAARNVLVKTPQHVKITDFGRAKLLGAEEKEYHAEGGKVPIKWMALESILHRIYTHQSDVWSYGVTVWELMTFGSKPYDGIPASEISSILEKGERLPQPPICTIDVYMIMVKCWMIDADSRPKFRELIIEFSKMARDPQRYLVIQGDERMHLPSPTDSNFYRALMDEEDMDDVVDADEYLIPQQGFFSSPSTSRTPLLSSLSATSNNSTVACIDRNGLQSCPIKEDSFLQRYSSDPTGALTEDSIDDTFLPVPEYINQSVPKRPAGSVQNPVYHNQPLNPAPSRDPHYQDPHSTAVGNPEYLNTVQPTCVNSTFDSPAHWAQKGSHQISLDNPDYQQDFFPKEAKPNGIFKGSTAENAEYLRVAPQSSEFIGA
# Procedure text: EGFR degradation, Total EGFR (L858R-specific) HTRF, NCI-H1975
# Format: cell-based
# Condition context: Table 9A; NCI-H1975 cells, 6 hours, Total EGFR HTRF; read-out: H1975 EGFR DC50

Molecule | Tested target | DC50
O=C1CCC(Nc2ccc(C3CCN(CC(=O)N4CCN(c5ccc(-c6cc(F)c7c(c6)C(=O)N(C(C(=O)Nc6nccs6)c6ncn8c6CCC8)C7)cc5)CC4)CC3)cc2F)C(=O)N1 (centres unmarked) | EGFR L858R-T790M (Homo sapiens, UniProt P00533, L858R/T790M) | 50 to 150 nM
O=C1CCC(Nc2ccc(C3CCN(CC(=O)N4CCN(c5ccc(-c6cc(F)c7c(c6)C(=O)N(C(C(=O)Nc6nccs6)c6ncn8c6CCC8)C7)cc5)CC4)CC3)cc2)C(=O)N1 (centres unmarked) | EGFR L858R-T790M (Homo sapiens, UniProt P00533, L858R/T790M) | < 50 nM
O=C1CCC(Nc2ccc(C3CCN(CC(=O)N4CC5(C4)CN(c4ccc(-c6cc(F)c7c(c6)C(=O)N(C(C(=O)Nc6nccs6)c6ncn8c6CCC8)C7)cc4)C5)CC3)cc2)C(=O)N1 (centres unmarked) | EGFR L858R-T790M (Homo sapiens, UniProt P00533, L858R/T790M) | < 50 nM
O=C1CCC(Nc2ccc(C3CCN(CC(=O)N4CCN(c5ccc(-c6cc(F)c7c(c6)C(=O)N(C(C(=O)Nc6nccs6)c6ncn8c6CCC8)C7)cc5)CC4)CC3)c(C(F)F)c2)C(=O)N1 (centres unmarked) | EGFR L858R-T790M (Homo sapiens, UniProt P00533, L858R/T790M) | < 50 nM
O=C1CC[C@H](Nc2ccc(C3CCN(CC(=O)N4CCC(c5ccc(-c6cc(F)c7c(c6)C(=O)N(C(C(=O)Nc6nccs6)c6ncn8c6CCC8)C7)cc5)CC4)CC3)cc2)C(=O)N1 (some centres unmarked) | EGFR L858R-T790M (Homo sapiens, UniProt P00533, L858R/T790M) | < 50 nM

====

// reported DC50 for each item listed
# Tested target: EGFR L858R-T790M-C797S (Homo sapiens, UniProt P00533, C797S/L858R/T790M)
# Construct: generated using CRISPR technology to introduce the additional C797S mutation by Horizon Discovery; host or cells: NCI-H1975+CS (CRISPR knock-in of C797S)
# Sequence (P00533 25-1210 T790M/C797S/L858R): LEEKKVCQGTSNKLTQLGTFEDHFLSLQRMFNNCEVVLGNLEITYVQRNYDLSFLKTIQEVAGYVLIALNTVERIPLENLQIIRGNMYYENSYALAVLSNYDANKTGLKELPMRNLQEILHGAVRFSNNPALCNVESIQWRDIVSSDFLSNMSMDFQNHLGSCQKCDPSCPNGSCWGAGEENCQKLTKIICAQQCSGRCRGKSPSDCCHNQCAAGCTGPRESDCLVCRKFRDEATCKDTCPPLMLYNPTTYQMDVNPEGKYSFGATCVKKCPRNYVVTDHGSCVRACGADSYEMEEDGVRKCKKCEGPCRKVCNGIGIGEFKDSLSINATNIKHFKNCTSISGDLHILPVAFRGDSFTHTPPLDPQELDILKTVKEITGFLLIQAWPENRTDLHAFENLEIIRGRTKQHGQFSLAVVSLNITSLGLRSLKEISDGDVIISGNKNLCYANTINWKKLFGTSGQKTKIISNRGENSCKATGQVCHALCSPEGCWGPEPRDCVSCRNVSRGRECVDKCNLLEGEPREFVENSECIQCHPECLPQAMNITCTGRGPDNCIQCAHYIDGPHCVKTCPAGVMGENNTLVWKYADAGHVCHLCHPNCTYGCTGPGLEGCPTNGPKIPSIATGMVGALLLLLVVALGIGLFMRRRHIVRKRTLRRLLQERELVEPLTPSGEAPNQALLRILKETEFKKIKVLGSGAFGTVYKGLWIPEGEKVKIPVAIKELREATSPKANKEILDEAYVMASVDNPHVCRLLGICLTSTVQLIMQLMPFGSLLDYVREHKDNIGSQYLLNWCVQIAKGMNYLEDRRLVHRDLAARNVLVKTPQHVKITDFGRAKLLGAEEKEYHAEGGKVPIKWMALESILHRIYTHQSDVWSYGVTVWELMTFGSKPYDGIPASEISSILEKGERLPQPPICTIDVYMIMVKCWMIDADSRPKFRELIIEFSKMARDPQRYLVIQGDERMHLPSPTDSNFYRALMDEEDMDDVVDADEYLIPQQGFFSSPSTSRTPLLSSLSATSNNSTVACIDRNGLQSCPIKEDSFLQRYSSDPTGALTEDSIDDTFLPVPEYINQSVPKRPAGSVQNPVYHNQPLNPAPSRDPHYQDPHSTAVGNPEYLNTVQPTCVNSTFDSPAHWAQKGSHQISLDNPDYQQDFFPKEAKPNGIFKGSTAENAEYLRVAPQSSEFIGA
# Procedure text: EGFR degradation, Total EGFR (L858R-specific) HTRF, NCI-H1975+CS
# Assay type: cell-based
# Condition context: H1975 + CS (L858R-T790M-C797S), 6 hours; read-out: tEGFR DC50
# Procedure: NCI-H1975 (harboring EGFR heterozygous L858R-T790M mutations) and NCI-H3255 (harboring EGFR heterozygous L858R mutation) were purchased from ATCC and NCI, respectively. […] Degradation of EGFR protein containing L858R mutation or wild-type was determined based on quantification of FRET signal using a Total EGFR (L858R-specific or pan-EGFR detecting) HTRF assay kit. Phospho-EGFR (pEGFR) inhibition was determined based on quantification of FRET signal using a pY1068 EGFR HTRF assay kit. […]
Assay metric: DC50 (nM)

Molecule | Unit info | Numeric readout
Cn1nc(N2CCC(=O)NC2=O)c2ccc(C3CCN(CC(=O)N4CC5(C4)CN(c4ccc(-c6cc(F)c7c(c6)C(=O)N(C(C(=O)Nc6ccccn6)c6ncn8c6CCC8)C7)cc4)C5)CC3(F)F)cc21 (centres unmarked) [Compound 5] | nM | 23
Cn1nc(N2CCC(=O)NC2=O)c2ccc([C@H]3CCN(CC(=O)N4CC5(C4)CN(c4ccc(-c6cc(F)c7c(c6)C(=O)N(C(C(=O)Nc6nccs6)c6ncn8c6CCC8)C7)cc4)C5)CC3(F)F)cc21 (some centres unmarked) [Compound 2] | nM | 19
O=C1CCC(Nc2ccc(C3CCN(CC(=O)N4CC5(C4)CN(c4ccc(-c6cc(F)c7c(c6)C(=O)N(C(C(=O)Nc6nccs6)c6ncn8c6CCC8)C7)cc4)C5)CC3(F)F)cc2)C(=O)N1 (single isomer, unassigned) [Compound 4] | nM | 33
O=C1CC[C@H](Nc2ccc(N3CCC(O)(CC(=O)N4CC5(C4)CN(c4ccc(-c6cc(F)c7c(c6)C(=O)N(C(C(=O)Nc6nccs6)c6ncn8c6CCC8)C7)cc4)C5)CC3)c(F)c2)C(=O)N1 (some centres unmarked) [Compound 1] | nM | 12
Cn1nc(N2CCC(=O)NC2=O)c2ccc(C3CCN(CC(=O)N4CC5(C4)CN(c4ccc(-c6cc(F)c7c(c6)C(=O)N(C(C(=O)Nc6nccs6)c6ncn8c6CCC8)C7)cc4)C5)CC3(F)F)cc21 (centres unmarked) [Compound 3] | nM | 33

====

Recorded measurements of log10 GI50, one per entry
# Tested on: BaF3 cells expressing EGFR L858R-L718Q
# Procedure text: Ba/F3 EGFR cell viability (CellTiter-Glo), L858R-L718Q
# Assay type: cell-based
# Condition context: Mus musculus, read-out: CTGlo (GI50)
Assay metric: log10 GI50 (log10 of the value in µM)

Compound | Tested target | log10 GI50
O=C1CCC(Nc2ccc(N3CCC(O)(CC(=O)N4CC5(C4)CN(c4ccc(-c6cc(F)c7c(c6)C(=O)N(C(C(=O)Nc6nccs6)c6ncn8c6CCC8)C7)cc4)C5)CC3)c(Cl)c2)C(=O)N1 (single isomer, unassigned; isomer 1) | BaF3 cells expressing EGFR L858R-L718Q | -1.77
O=C1CC[C@H](Nc2ccc(N3CCC(O)(CC(=O)N4CCC5(CC4)CN(c4ccc(-c6cc(F)c7c(c6)C(=O)N(C(C(=O)Nc6nccs6)c6ncn8c6CCC8)C7)cc4)C5)CC3)c(F)c2)C(=O)N1 (some centres unmarked) | BaF3 cells expressing EGFR L858R-L718Q | -1.64
O=C1CC[C@H](Nc2ccc(N3CCC(O)(CC(=O)N4CC5(C4)CN(c4ccc(-c6cc(F)c7c(c6)C(=O)N(C(C(=O)Nc6nccs6)c6ncn8c6CCC8)C7)cc4)C5)CC3)c(F)c2)C(=O)N1 (some centres unmarked) | BaF3 cells expressing EGFR L858R-L718Q | -1.62
Cn1nc(N2CCC(=O)NC2=O)c2ccc([C@H]3CCN(CC(=O)N4CC5(C4)CN(c4ccc(-c6cc(F)c7c(c6)C(=O)N(C(C(=O)Nc6nccs6)c6ncn8c6CCC8)C7)cc4)C5)CC3(F)F)cc21 (some centres unmarked) | BaF3 cells expressing EGFR L858R-L718Q | -2.22
O=C1CCN(c2ccc(N3CCC(O)(CC(=O)N4CC5(C4)CN(c4ccc(-c6cc(F)c7c(c6)C(=O)N(C(C(=O)Nc6nccs6)c6ncn8c6CCC8)C7)cc4)C5)CC3)c(Cl)c2)C(=O)N1 (centres unmarked) | BaF3 cells expressing EGFR L858R-L718Q | 0.31

====

# Tested target: EGFR L858R-T790M (Homo sapiens, UniProt P00533, L858R/T790M)
# Construct: NCI-H1975 (harboring EGFR heterozygous L858R-T790M mutations); host or cells: NCI-H1975
# Procedure text: EGFR degradation, Total EGFR (L858R-specific) HTRF, NCI-H1975
# Format: cell-based
# Condition context: Table 9B; NCI-H1975 cells, 6 hours, Total EGFR HTRF; read-out: H1975 EGFR DC50
Entries and their measured DC50 follow.

Compound | DC50
Cn1nc(N2CCC(=O)NC2=O)c2cc(F)c(N3CCC(O)(CC(=O)N4CC5(C4)CN(c4ccc(-c6cc(F)c7c(c6)C(=O)N(C(C(=O)Nc6nccs6)c6ncn8c6CCC8)C7)cc4)C5)CC3)cc21 (stereo not shown) | < 50 nM
Cn1nc(N2CCC(=O)NC2=O)c2ccc([C@H]3CCN(C(=O)CN4CC5(CCN(c6ccc(-c7cc(F)c8c(c7)C(=O)N(C(C(=O)Nc7nccs7)c7ncn9c7CCC9)C8)cc6)CC5)C4)CC3(F)F)cc21 (stereo partly shown) | 50 to 150 nM
O=C1CCC(Nc2ccc(-c3ccc(CC(=O)N4CCC(Oc5ccc(-c6cc(F)c7c(c6)C(=O)N(C(C(=O)Nc6nccs6)c6ncn8c6CCC8)C7)cc5)CC4)cc3)cc2)C(=O)N1 (stereo not shown) | 50 to 150 nM
O=C1CCC(Nc2cc(F)c(N3CCC(O)(CC(=O)N4CC5(CCN(c6ccc(-c7cc(F)c8c(c7)C(=O)N(C(C(=O)Nc7nccs7)c7ncn9c7CCC9)C8)cc6)CC5)C4)CC3)c(F)c2)C(=O)N1 (single isomer, unassigned; isomer 1) | < 50 nM
O=C1CC[C@H](Nc2ccc(N3CCC(O)(CC(=O)N4CC5(C4)CN(c4ccc(-c6cc(F)c7cn(C(C(=O)Nc8nccs8)c8ncn9c8CCC9)nc7c6)cn4)C5)CC3)c(F)c2)C(=O)N1 (stereo partly shown) | < 50 nM
Cn1nc(N2CCC(=O)NC2=O)c2ccc(C3CCN(CC(=O)N4CCN(c5ccc(-c6cc(F)c7cn(C(C(=O)Nc8nccs8)c8ncn9c8CCC9)nc7c6)cn5)CC4)CC3(F)F)cc21 (stereo not shown) | < 50 nM
Cn1nc(N2CCC(=O)NC2=O)c2ccc(N3CCC(O)(CC(=O)N4CC5(C4)CN(c4ccc(-c6cc(F)c7c(c6)C(=O)N(C(C(=O)Nc6nccs6)c6ncn8c6CCC8)C7)cc4)C5)CC3)cc21 (stereo not shown) | < 50 nM
O=C1CCC(Nc2cnc(C3CCN(CC(=O)N4CC5(C4)CN(c4ccc(-c6cc(F)c7c(c6)C(=O)N(C(C(=O)Nc6nccs6)c6ncn8c6CCC8)C7)cc4)C5)CC3)c(F)c2)C(=O)N1 (stereo not shown) | < 50 nM
O=C1CC[C@H](Nc2ccc(N3CCC(O)(CC(=O)N4CC5(C4)CN(c4ccc(-c6cc(Cl)c7c(c6)C(=O)N(C(C(=O)Nc6nccs6)c6ncn8c6CCC8)C7)cc4)C5)CC3)c(F)c2)C(=O)N1 (stereo partly shown) | < 50 nM
Cn1nc(N2CCC(=O)NC2=O)c2ccc(C3CCN(CC(=O)N4CCC(NC(=O)c5ccc(C#Cc6cc(F)c7c(c6)C(=O)N(C(C(=O)Nc6nccs6)c6ncn8c6CCC8)C7)cn5)CC4)CC3(F)F)cc21 (stereo not shown) | < 50 nM
O=C1CC[C@H](Nc2ccc(C3CCN(CC(=O)N4CC5(C4)CN(c4ccc(-c6ccc7cn(C(C(=O)Nc8nccs8)c8ncn9c8CCC9)nc7c6F)cn4)C5)CC3)c(F)c2)C(=O)N1 (stereo partly shown) | < 50 nM
Cn1nc(N2CCC(=O)NC2=O)c2ccc(C3CCN(CC(=O)N4CC5(CCN(c6ccc(-c7cc(F)c8c(c7)C(=O)N(C(C(=O)Nc7nccs7)c7ncn9c7CCC9)C8)cc6)CC5)C4)CC3(F)F)cc21 (stereo not shown) | < 50 nM
O=C1CCN(c2ccc(N3CCC(O)(CC(=O)N4CC5(C4)CN(c4ccc(-c6cc(F)c7c(c6)C(=O)N(C(C(=O)Nc6nccs6)c6ncn8c6CCC8)C7)cc4)C5)CC3)c(F)c2)C(=O)N1 (stereo not shown) | 50 to 150 nM
